tested on: PANC-1; experiment: SRB colorimetric assay of cell growth and viability, PANC-1; assay type: cell-based, human; details: 48 hours exposure; read-out: LC50 PANC-1
Where a SMILES comes first, the peptide text is derived from it. Bridges are numbered along the chain shown (N, C = ends). [ ]: non-standard residue; d: D form. The star is where a group is joined. d(aIle) = CC[C@H](C)[C@@H](N)C(=O)O; d(aThr) = C[C@@H](O)[C@@H](N)C(=O)O; Hexanoyl(5-Me) = CC(C)CCCC(=O)*; Orn = NCCC[C@H](N)C(=O)O; Dhb = C/C=C(\N)C(=O)O
parameter: CC50 (µM)
Report the value in µM with no unit label.

Query: # lookup: CC50 of C/C=C1\NC(=O)[C@H](Cc2ccccc2)NC(=O)[C@@H](C(C)C)NC(=O)[C@@H]([C@@H](C)CC)NC(=O)[C@H](NC(=O)[C@H](NC(=O)[C@H](CCCN)NC(=O)[C@H]2CCCN2C(=O)[C@H](NC(=O)[C@H](C)NC(=O)[C@@H](NC(=O)[C@H](NC(=O)CCCC(C)C)C(C)C)[C@@H](C)O)C(C)C)[C@@H](C)CC)[C@@H](C)OC(=O)[C@H](C(C)C)NC1=O [Compound 44, [Ala^11]-KF] ({Hexanoyl(5-Me)}-[dV]TA[dV][dP][Orn][d(aIle)][d(aThr)][d(aIle)][dV]F[Dhb]V; ester 8-C)
Reply: 6.9

* * *

tested on: PANC-1; experiment: SRB colorimetric assay of cell growth and viability, PANC-1; type: cell-based, human; details: 48 hours exposure
Where a SMILES comes first, the peptide text is derived from it. Bridges are numbered along the chain shown (N, C = ends). [ ]: non-standard residue; d: D form. The star is where a group is joined. d(aIle) = CC[C@H](C)[C@@H](N)C(=O)O; d(aThr) = C[C@@H](O)[C@@H](N)C(=O)O; Hexanoyl(5-Me) = CC(C)CCCC(=O)*; Orn = NCCC[C@H](N)C(=O)O; Dhb = C/C=C(\N)C(=O)O
GI50 reference

Known results for molecules:
molecule="C/C=C1\\NC(=O)[C@H](Cc2ccccc2)NC(=O)[C@@H](C(C)C)NC(=O)[C@@H]([C@@H](C)CC)NC(=O)[C@H](NC(=O)[C@H](NC(=O)[C@H](CCCN)NC(=O)[C@H]2CCCN2C(=O)[C@H](NC(=O)CNC(=O)[C@@H](NC(=O)[C@H](NC(=O)CCCC(C)C)C(C)C)[C@@H](C)O)C(C)C)[C@@H](C)CC)[C@@H](C)OC(=O)[C@H](C(C)C)NC1=O [Compound 42, [Gly^11]-KF] ({Hexanoyl(5-Me)}-[dV]TG[dV][dP][Orn][d(aIle)][d(aThr)][d(aIle)][dV]F[Dhb]V; ester 8-C)" study_target=PANC-1 parameter=GI50 observed="5080 nM"
molecule="C/C=C1\\NC(=O)[C@H](Cc2ccccc2)NC(=O)[C@@H](C(C)C)NC(=O)[C@@H]([C@@H](C)CC)NC(=O)[C@H](NC(=O)[C@H](NC(=O)[C@H](CCCN)NC(=O)[C@H]2CCCN2C(=O)[C@H](NC(=O)[C@@H](NC(=O)[C@@H](NC(=O)[C@H](NC(=O)C(F)(F)C(F)(F)C(F)(F)C(F)(F)C(F)(F)C(F)(F)F)C(C)C)[C@@H](C)O)C(C)C)C(C)C)[C@@H](C)CC)[C@@H](C)OC(=O)[C@H](C(C)C)NC1=O [Compound 26, [Pfh^14]-KF]" study_target=PANC-1 parameter=GI50 observed="2010 nM"

Lab note: next molecule to report on.
Query: Item C/C=C1\NC(=O)[C@H](Cc2ccccc2)NC(=O)[C@@H](C(C)C)NC(=O)[C@@H]([C@@H](C)CC)NC(=O)[C@H](NC(=O)[C@H](NC(=O)[C@H](CCCN)NC(=O)[C@H]2CCCN2C(=O)[C@H](NC(=O)[C@@H](NC(=O)[C@@H](NC(=O)[C@H](NC(=O)c2ccc(C(F)(F)F)cc2)C(C)C)[C@@H](C)O)C(C)C)C(C)C)[C@@H](C)CC)[C@@H](C)OC(=O)[C@H](C(C)C)NC1=O [Compound 21, [p-CF3Bza^14]-KF] has what recorded GI50?
Reply: 1300 nM
